Reference for the values: the RepoRT retention time repository (doi:10.1016/j.jchromb.2020.122105)

- protocol.details: RP, Waters CORTECS T3, 100 × 2.1 mm, 2.7 µm, 0.2 mL/min, estimated dead time 1.1 min; A: water + 0.1% formic acid, pH 3; B: methanol + 0.1% formic acid, pH 3; gradient (min/%B) 0/5 5/5 25/95 25.1/100 35/100 35.1/5 45/5
- cond: stereoisomer not certain
Where a name gives a salt, the structure may show the parent alone.
Each entry below carries its reported LC retention time.
readout: LC retention time (min)

INSERT INTO results (compound, experimental_result) VALUES
  ('O=S(=O)(O)Oc1c[nH]c2ccccc12 [INDOXYL SULFATE]', 13.6),
  ('CC1NC(=O)NC1CCCCCC(=O)O (stereo not drawn)', 19),
  ('NCCP(=O)(O)O [(2-AMINOETHYL)PHOSPHONATE]', 2.44);

* * *

- protocol.details: RP, Waters CORTECS T3, 100 × 2.1 mm, 2.7 µm, 0.1 mL/min, estimated dead time 2.2 min; A: water + 0.1% formic acid, pH 3; B: methanol + 0.1% formic acid, pH 3; gradient (min/%B) 0/0 1/0 6/5 30/100 35/100 35.1/0 40/0
- cond: stereoisomer not certain
readout: LC retention time

INSERT INTO results (compound, experimental_result) VALUES
  ('O=C([O-])Cc1c[nH]c2ccccc12 [INDOLE-3-ACETATE]', '14.7 min'),
  ('CCCCCCCCCCCCCCCC(O)C(N)CO (stereo not drawn) [SPHINGANINE]', '24.1 min'),
  ('O=C(O)c1ccc(=O)[nH]c1 [6-HYDROXYNICOTINATE]', '3.28 min');

* * *

- protocol.details: RP, Waters CORTECS T3, 100 × 2.1 mm, 2.7 µm, 0.15 mL/min, estimated dead time 1.5 min; A: water + 0.1% formic acid, pH 3; B: methanol + 0.1% formic acid, pH 3; gradient (min/%B) 0/0 1/0 6/5 30/100 35/100 35.1/0 40/0
- cond: stereoisomer not certain
Lab note - cut at 20 min for LC retention time: Criterion met if strictly below, Criterion not met if not.

INSERT INTO results (molecule, class_assignment) VALUES
  ('NC(=O)C1CCCN1C(=O)C(Cc1cnc[nH]1)NC(=O)C1CCC(=O)N1 (stereo not given)', 'Criterion met'),
  ('CC1C(=O)Nc2ccccc21 (stereo not given)', 'Criterion met'),
  ('CC12CCC(=O)C=C1CCC1C2C(=O)CC2(C)C1CCC2(O)C(=O)CO (stereo not given)', 'Criterion not met'),
  ('CCCCCCCCCCCC(=O)OC(CC(=O)[O-])C[N+](C)(C)C (stereo not given)', 'Criterion not met');
